Threshold check on logP: at or above 0.1 gives y, strictly below gives n.

chem smiles	label class
COC(=O)c1ncccn1	n
Cc1ccnnc1	n
NC(=O)c1cccnn1	n
N#Cc1ncc(Cl)nc1C#N	y
COC(=O)c1cccnn1	n
Fc1ncccn1	n
COC(=O)c1ccoc1	y
CCOC(=O)c1ncccn1	n
Nc1ccncn1	n
CCOC(=O)c1cncnc1	y
CCCCc1nc(C#N)c(C#N)nc1C	y
